Source: PubChem BioAssay AID430

For each entry below, report its cytotoxicity value.
Assay: cytotoxicity in HPDE-C7 cells, cell-based, fluorescence, HTS (AID 430);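 note: cells exposed to compound for 48 hours before viability readout; 0% = vehicle and 100% = reference cytotoxic drug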
Settings: HPDE-C7 pancreatic duct cells viability, at 10 µM, stronger effect = higher value
Screen size: about 63,000 compounds; about 1,100 (1.7%) were called active. The list comes from a sample in which actives are over-represented; it also holds close analogues and randomly drawn compounds. Results with a measured potency or affinity are listed apart.
Record the value in %, omitting the unit from your answer.

INPUT: If you can, please state the reported cytotoxicity value of `CCc1c(C)nc2cc(-c3ccc(OC)c(OC)c3)nn2c1N1CCCC1` .
OUTPUT: 8.9

INPUT: Here is the next molecule: `CCOc1cc(C(=O)NCCOC)ccc1OC`
OUTPUT: -6.6

INPUT: Follow-up item: `C=CCN(CC=C)S(=O)(=O)c1ccc2nc(NC(=O)C(C)C)sc2c1`
OUTPUT: 76.7

INPUT: Next molecule up: `CC1(C)CC(=O)c2cnn(-c3nc4ccccc4[nH]3)c2C1`
OUTPUT: -0.3

INPUT: Can you check `O=C(Cc1cn2ccsc2n1)Nc1cccc2cnccc12` next?
OUTPUT: 11.4

INPUT: Request: `CCC(NC(=O)Nc1ncccc1C)(C(F)(F)F)C(F)(F)F`
OUTPUT: -6.7

INPUT: Would you mind doing `CCOC(=O)c1ccc2nc(NC(=O)C(C)C)sc2c1` as well?
OUTPUT: -3.3

INPUT: Now this one: CCCCN(C)CCCNC(=O)c1ccc2c(c1)NC(=O)C(N1CCOCC1)S2 (stereo unspecified)
OUTPUT: 2.3

INPUT: Similarly, Cc1cccc(OCC(O)Cn2c(-n3nc(C)cc3C)nc3c2c(=O)[nH]c(=O)n3C)c1 (stereo unspecified) ?
OUTPUT: -2.9

INPUT: Another molecule to check: `c1ccc2c(c1)nc(N1CCOCC1)c1c3ccccc3[nH]c21`
OUTPUT: -21.6

INPUT: Then this molecule: `Cc1cccc2cc(COC(=O)c3cccnc3)c(=O)[nH]c12`
OUTPUT: 8.9

* * *

Assay: cytotoxicity in HPDE-C7 cells, cell-based, fluorescence, HTS (AID 430);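 note: cells exposed to compound for 48 hours before viability readout; 0% = vehicle and 100% = reference cytotoxic drug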
Conditions: HPDE-C7 pancreatic duct cells viability, at 10 µM
Screen size: about 63,000 compounds; about 1,100 (1.7%) were called active. Rule as the data show it: active = cytotoxicity above about 50%; inactive = the rest. The entries come from a sample that favours actives as a whole. Results with a measured potency or affinity are listed apart.
Choose one outcome from this list and give only that: active, inactive

INPUT: Can you look up the reported call for `c1csc(-c2nnsc2-c2nc3ccccc3[nH]2)c1` for me?
OUTPUT: inactive

INPUT: Try `CCCOC(=O)c1ccc(OC(=O)c2ccco2)cc1` next.
OUTPUT: inactive

INPUT: Now give it for Cc1ccc2c(c1)C(c1ccc(F)cc1)N(C(=O)C1CC1)CC(=O)N2 (stereo unspecified) too.
OUTPUT: inactive

INPUT: Would you mind doing `CS(=O)(=O)c1ccc2nc(NC(=O)Cc3ccccc3)sc2c1` as well?
OUTPUT: inactive

INPUT: Same question for `CCOc1ccc(-c2n[nH]c(C)c2-c2ccccc2OC)c(O)c1` please.
OUTPUT: inactive

INPUT: Now consider `Cc1cccc(NC(=O)C2CCN(S(=O)(=O)c3c(C)nn(C)c3C)CC2)n1` .
OUTPUT: inactive

INPUT: What about this compound? `Cc1nnc(Nc2ccc(C(=O)NCCO)cc2)c2ccccc12`
OUTPUT: inactive

INPUT: Likewise for `N=c1c2c(-c3ccccc3)c(-c3ccccc3)n(Cc3ccco3)c2ncn1CCN1CCOCC1` ?
OUTPUT: inactive

INPUT: Same question for `CC(C)(C)NS(=O)(=O)c1ccc2nc(NC(=O)Cc3cccs3)sc2c1` please.
OUTPUT: active

INPUT: Also check `Cc1[nH]c(=O)[nH]c(=O)c1NC(=O)CSc1ncccc1-c1nc2ccccc2[nH]1`
OUTPUT: inactive

INPUT: Do the same for `Cc1ccccc1OCc1nc(-c2ccccc2)no1` please
OUTPUT: inactive

INPUT: Can you handle `Cc1ccc2nc(NCc3ccccc3)[nH]c2c1` next?
OUTPUT: active

INPUT: Further, for `Cc1ccc(-c2cc(C(F)F)nc(NCc3cccnc3)n2)cc1` ?
OUTPUT: inactive

INPUT: What do you have for `CC(=O)NC1(c2cccc(F)c2)CCN(C(=O)Nc2ccc(C#N)cc2)CC1` ?
OUTPUT: inactive

INPUT: Check `CCOc1cc(/C=N/n2cnnc2)ccc1OCC(=O)Nc1ccccc1OC` too.
OUTPUT: inactive

INPUT: Lookup `Cc1cc(NC(=O)Cn2cc(C(F)(F)F)cc(Cl)c2=O)no1`
OUTPUT: inactive

INPUT: Same thing, different compound: `CCOc1ccccc1CN(Cc1ccco1)S(=O)(=O)c1ccc(-n2cnnn2)c(OC)c1`
OUTPUT: active

INPUT: Here is the next compound: `CCn1c2ccccc2c2cc(N)ccc21`
OUTPUT: inactive

INPUT: Also check Cc1cc(NC(=O)COC(=O)C(Nc2ccc(C(F)(F)F)cc2Cl)C(C)C)no1 (stereo unspecified)
OUTPUT: active

INPUT: Same read-out for `COc1ccc(Cn2c3nc4ccccc4nc3c3c(=O)n(Cc4ccco4)cnc32)cc1` ?
OUTPUT: inactive

INPUT: Record: `CCn1c(SC/C=C/c2ccccc2)nnc1-c1cnccn1`
OUTPUT: inactive

INPUT: Next up: `O=C(c1cnn2ccccc12)N(Cc1ccco1)C1CCCC1`
OUTPUT: inactive

INPUT: Queued: `N=c1c(C(=O)NCc2ccccc2)cc2c(=O)n3ccccc3nc2n1Cc1ccco1`
OUTPUT: inactive

INPUT: Here is the next compound: `Cc1ccccc1OCc1nc(-c2ccc(-n3cccc3)cc2)no1`
OUTPUT: active

INPUT: What do we get for `O=C(Cc1cccs1)Nc1nc2ccccc2s1` ?
OUTPUT: inactive

INPUT: Param item: `CCn1c2ccccc2c2cc(/C=N/n3cnnc3)ccc21`
OUTPUT: inactive

INPUT: Then what about the compound COc1ccc(C(CC(=O)O)NC(=O)c2ccco2)cc1OC (stereo unspecified) ?
OUTPUT: inactive

INPUT: Let us now turn to `COc1ccc2nc(NCc3ccccc3)[nH]c2c1`
OUTPUT: inactive

INPUT: Item: `CNC(=O)c1ccccc1NC(=O)c1c(O)c2c([nH]c1=O)CCCC2`
OUTPUT: inactive

INPUT: // same read-out, input: CC(=O)N1CCN(S(=O)(=O)c2ccc(C)cc2)C1C(C)C (stereo unspecified)
OUTPUT: inactive

INPUT: Again, but for `CCCOC(=O)c1ccc(NC(=O)c2cnccn2)cc1`
OUTPUT: inactive

INPUT: `Cc1cc(NC(=O)COC(=O)CSCc2ccc(Cl)c(Cl)c2)no1` ?
OUTPUT: inactive

INPUT: Moving on to `O=C(Nc1nnc(CC2=CCCCC2)s1)c1cccs1`
OUTPUT: inactive

INPUT: Repeat with CCCCn1c2nc3ccccc3nc2c2c(=O)n(C(C)CC)cnc21 (stereo unspecified)
OUTPUT: inactive

INPUT: Continue with `N=c1c(S(=O)(=O)c2ccccc2)cc2c(=O)n3ccccc3nc2n1Cc1ccco1`
OUTPUT: inactive

INPUT: Try `COc1ccc(-n2cnnc2SCC(=O)c2cc(C)n(Cc3cccs3)c2C)cc1` next.
OUTPUT: inactive

INPUT: Continue with `C=Cn1ccnc1P(=S)(c1ccc2c(c1)c1ccccc1n2CC)c1nccn1C=C`
OUTPUT: active

INPUT: Also check `Cc1cccc(C#N)c1NC1=CC(=O)CC(C)(C)C1`
OUTPUT: inactive

INPUT: What about `O=C(c1ccc(CS(=O)(=O)Cc2ccc(Cl)cc2)o1)N1CCCC1` ?
OUTPUT: inactive

INPUT: Similarly, `COc1ccccc1CN(Cc1ccco1)S(=O)(=O)c1ccc(-n2cnnn2)c(OC)c1` ?
OUTPUT: inactive

INPUT: And what about the compound `CSc1cccc(NC(=O)CSc2nc3ccccc3o2)c1` ?
OUTPUT: inactive

INPUT: What do you have for C/C(=N\O)C1/C(=N/O)CC2C1C2(C)C (stereo unspecified) ?
OUTPUT: inactive

INPUT: What do we get for `NC(=O)CSc1nnc(Cn2c(=O)sc3ccccc32)n1-c1ccccc1` ?
OUTPUT: inactive

INPUT: Quick one: `Cc1ccc(CNC(=O)c2cc3c(=O)n4ccccc4nc3n(Cc3ccco3)c2=N)cc1`
OUTPUT: active

INPUT: Proceed to CC1=C(C(=O)Nc2ccccc2)C(c2ccncc2)C(C#N)=C(SCC(=O)NC2CC2)N1 (stereo unspecified)
OUTPUT: inactive

INPUT: Try `COC(=O)c1ccc(CSc2nc(N)cc(N)n2)cc1` next.
OUTPUT: inactive
